Data origin, for the record: PubChem BioAssay (NCI)

Tested on: SN12C renal
Protocol Notes: NCI-60 one-dose screen, 48 h (100 = growth as untreated, 0 = no growth, -100 = all killed)
Conditions Used: 10 µM unless noted
Description: Growth inhibition of the SN12C human tumor cell line is measured as a screen for anti-cancer activity. Cells are grown in 96 well plates and exposed to the test compound for 48 hours. Compounds are tested at a single concentration, which is 10^-5 M for most compounds. The reported endpoint is percent growth (GI% or GIPRCNT), where numbers from 0 - 100% represent growth inhibition, and numbers from -100% - 0 represent cell death. For example, a value of 40 represents 60% growth inhibition. […]
This is part of a sample that, as a whole, favours compounds with a hit. Of some 83,000 tested, about 20% had one in any assay.
Recorded Metric: growth (%)
Give bare numbers, in %.

Provide reported growth for each item, in the same order as listed.
1. Cc1ccc(-c2nc(C#N)c(S(=O)(=O)N3CCN(S(=O)(=O)c4ccc(Cl)cc4)CC3)o2)cc1
2. Cc1cc2nc3c4ccccc4n(CCCN(C)C)c3nc2cc1C

Result:
93.4
-27.6

Provide reported growth for each item, in the same order as listed.
1. Cn1cc(-c2nc(N)nnc2-c2c[nH]c3ccc(Br)cc23)c2cccnc21
2. COc1ccc(Cc2nn(CC(=O)N/N=C/c3ccc(F)cc3)c(=O)c3c(C)noc23)cc1
3. N#Cc1ccc(C(=O)Nn2c(N)cc3ccccc3c2=O)cc1
4. N/C(=N\c1nc2ccccc2s1)NC(=O)Nc1ccc(Cl)cc1Cl
5. C=C1CC[C@@H]2[C@]3(C)COC(c4ccccc4)O[C@@H]3CC[C@@]2(C)[C@@H]1C/C=C1/C(=O)OCC1OC(C)=O (some centres undefined)
6. O=C(NNc1nc2cc(C(F)(F)F)ccc2n2cccc12)c1cnccn1
7. Cc1ccc(C2CC(c3ccc(S(=O)(=O)NCCNc4nc(Nc5ccc(F)cc5)nc(N(C)C)n4)cc3)=Nc3c(N)nc(N)nc3N2)cc1 (centres undefined)

Result:
[49.8, -0.271, 89.9, -88.7, -96.9, -59.9, 74.2]

###

Tested on: HT29 colon
Protocol Notes: NCI-60 one-dose screen, 48 h (100 = growth as untreated, 0 = no growth, -100 = all killed)
Conditions Used: 10 µM unless noted
Compounds without any hit were thinned out: in the full panel of roughly 83,000, 20% have a hit. Activity calls are given as the source filed them. The calls were made as follows: active = growth percent below 10; inactive = the rest.
Provide the reported growth of each item.

{"Molecule": "C(=C\\c1cc(/C=C/c2ccccc2)c2ccccc2n1)/c1ccccc1", "Result": "86% (inactive)"}
{"Molecule": "CC1(C)CC[C@]2(C(=O)O)CC[C@]3(C)C(=CCC4[C@@]5(C)C[C@@H](O)[C@@H]6OC(c7ccccc7Br)OC[C@@]6(C)C5CC[C@]43C)C2C1 (some centres undefined)", "Result": "13.1% (inactive)"}
{"Molecule": "COC(OC)C1=C(C)OC(N)=C(C#N)C12C(=O)Nc1ccccc12 (centres undefined)", "Result": "102% (inactive)"}
{"Molecule": "COc1ccc(C(=O)/C=C/c2ccc(Cl)c(Cl)c2)cc1S(N)(=O)=O", "Result": "-50.3% (active)"}
{"Molecule": "COc1ccc2[nH]cc(-c3nnc(N)nc3-c3c[nH]c4ncc(Br)cc34)c2c1", "Result": "96.7% (inactive)"}

Provide reported growth for each item, in the same order as listed.
1. N/N=C(\N)c1c(N)nc(=S)[nH]c1-c1ccc(Cl)cc1Cl
2. O=C(Cn1c2c(sc1=O)[C@H]1[C@@H](O)[C@@H](O)[C@H](O)[C@@H]1CS2)N1CCOCC1
3. O=C(COc1ccc(NC(=O)Nc2ccc(Cl)cc2)cc1)N/N=C/c1ccccc1
4. O=C(COc1ccc(NC(=O)Nc2ccc(Cl)c(Cl)c2)cc1)N=Nc1c(O)[nH]c2ccc(Br)cc12

Result:
111% (inactive)
106% (inactive)
-87.4% (active)
-46.2% (active)
